System: Chilo suppressalis
procedure-text: Potentiation of pirimiphos-methyl-induced insecticidal activity against OP-resistant Chilo suppressalis Hata-f (rice stem borer) assessed as synergistic ratio at 1:10 pirimiphos-methyl to compound ratio relative to pirimiphos-methyl alone
Format: functional
Some molecules, each annotated with its measured fold change (FC).
Please reply with the value in numeric form only.

Cc1cc(OC(=O)N(C)C)ccc1[N+](=O)[O-] ... 207
Cc1cc(OC(=O)N(C)C)nc(N(C)C)n1 ... 1061
CN(C)C(=O)Oc1cc(-c2ccccc2)on1 ... 419

Look up fold change (FC) with Chilo suppressalis for this molecule: CNc1nc(C)cc(OC(=O)N(C)C)n1
818

Same read-out for CCN(CC)c1nc(C)cc(OC(=O)N(C)C)n1 ?
451

Also need Cc1cc(OC(=O)N(C)C)no1 , thanks.
582

How about this molecule: CSc1ccc(OC(=O)N(C)C)cc1C
231

====

Listing of recorded fold change (FC) by entry.
Tested on: Chilo suppressalis
procedure-text: Potentiation of fenitrothion-induced insecticidal activity against OP-resistant Chilo suppressalis Hata-f (rice stem borer) assessed as synergistic ratio at 1:10 fenitrothion to compound ratio relative to fenitrothion alone
Assay type: functional
The response must contain the number and no unit.

CN(C)C(=O)Oc1ccccc1Cl [2-CHLOROPHENYL DIMETHYLCARBAMATE] ... 5.1

// next entry
fold change (FC) for CN(C)C(=O)Oc1ccc(-c2ccccc2)cc1 ?
2

====

System: fenitrothion-detoxification activity by hydrolysis
procedure-text: Inhibition of fenitrothion-detoxification activities by hydrolysis in OP-resistant Chilo suppressalis Hata-f (rice stem borer) at 1x10'-4M (reference value: 0%)
Type: organism-based
condition-details: probe fenitrothion
reported-property: inhibition at 100 µM (%)
Unit % implied. Number only.

Param item = Cc1cc(OC(=O)N(C)C)nc(N(C)C)n1 ; retrieve measured inhibition at 100 µM.
78

====

Tested on: fenitrothion-detoxification activity by hydrolysis
procedure-text: Inhibition of fenitrothion-detoxification activities by hydrolysis in OP-resistant Chilo suppressalis Hata-f (rice stem borer) at 1x10'-7M (reference value: 0%)
Format: organism-based
condition-details: probe fenitrothion
reported-property: inhibition at 0.1 µM (%)
Numbers only here, please. The scale is %.

What inhibition at 0.1 µM appears in the records for this compound with fenitrothion-detoxification activity by hydrolysis? Cc1cc(OC(=O)N(C)C)nc(N(C)C)n1
0

====

System: fenitrothion-detoxification activity by binding protein
procedure-text: Inhibition of fenitrothion-detoxification activities by binding protein in OP-resistant Chilo suppressalis Hata-f (rice stem borer) at 1x10'-6M (reference value: 0%)
Format: organism-based
condition-details: in vivo, probe fenitrothion
reported-property: inhibition at 1 µM (%)
Give your result in % as a bare value.

Form entry - test system: fenitrothion-detoxification activity by binding protein; read-out: inhibition at 1 µM; molecule: Cc1cc(OC(=O)N(C)C)nc(N(C)C)n1
19.3

====

Test system: Chilo suppressalis
procedure-text: Potentiation of fenitrothion-induced insecticidal activity against OP-resistant Chilo suppressalis Hata-f (rice stem borer) assessed as synergistic ratio at 1:10 fenitrothion to compound ratio relative to fenitrothion alone
Assay type: functional
reported-property: fold change (FC)
Respond using a number only.

CN(C)C(=O)OCc1ccc([N+](=O)[O-])cc1 [4-NITROBENZYL DIMETHYLCARBAMATE] ... 1
CCN(CC)C(=O)Oc1cc(C)nc(N(CC)CC)n1 ... 8.7
Cc1cc(OC(=O)Nc2ccccc2)ccc1Cl ... 0.8
Cc1cc(C)cc(OC(=O)N(C)C)c1 [3,5-DIMETHYLPHENYL DIMETHYLCARBAMATE] ... 5.8
CN(C)C(=O)OCc1ccccc1 [BENZYL DIMETHYLCARBAMATE] ... 0.9

Requested read-out: fold change (FC). Entry: CCOC(=O)Nc1ccccc1 [ETHYL PHENYLCARBAMATE]
0.8

Please answer likewise for CSc1ccc(OC(=O)N(C)C)cc1C
22
